- Tested on: Phospho-Rb Ser807/811 in OVCAR3 cells
- ASSAY NAME: OVCAR3 Phospho-Rb Ser807/811 HTRF assay
- Type: cell-based
- CONDITION DETAILS: Homo sapiens, OVCAR-3, 1 h, OVCAR3 cells, Phospho-Rb Ser807/811 HTRF, 1 hour incubation; read-out: pRb-OVCAR3 IC50
- Experimental: Cells were trypsinized and resuspended in 1 mM hydroxyurea (Sigma; H8627), 90% RPMI and 10% fetal bovine serum. […] Dose response curve normalized to DMSO control was plotted using four-parameter logistic model for IC50 calculation.
RESULT TYPE: IC50 (nM)

P = COc1cc(O)c(C=O)c(OCC(=O)Nc2cc([C@H]3CC[C@@H](OC(=O)N4CCCC4(C)C)C3)[nH]n2)c1
Q = CC(C)NC(=O)O[C@@H]1CC[C@H](c2cc(NC(=O)c3cc(COc4cccc(O)c4C=O)nn3C)n[nH]2)C1
QUERY: Looking at recorded values for IC50, does P or Q come in lower? Lab note: record the label of whichever item you select.
RESULT: P
(P: 17.6 nM, Q: 95.2 nM)

1 = COc1cc(O)c(C=O)c(OCC(=O)Nc2cc([C@H]3CC[C@@H](OC(=O)N4C[C@H]5CC[C@@H]4CO5)C3)[nH]n2)c1
2 = COc1cc(O)c(C=O)c(OCC(=O)Nc2cc([C@H]3CC[C@@H](OC(=O)N4CCC4(C)C)C3)[nH]n2)c1
QUERY: // returns 1 or 2 , whichever has the lower IC50 Let me know the label of the one you choose.
RESULT: 2
(2: 13.1 nM, 1: 24.4 nM)

A = COc1cc(O)c(C=O)c(OCC(=O)Nc2cc([C@H]3CC[C@@H](OC(=O)N[C@H]4C[C@H]4F)C3)[nH]n2)c1
B = COc1cc(O)c(C=O)c(OCC(=O)Nc2cc([C@H]3CC[C@@H](OC(=O)N4CCC[C@H](C#N)C4)C3)[nH]n2)c1
QUERY: I would appreciate it if you could say which entry, A or B , has the lower IC50 value. Which one? Tell me its label.
RESULT: B
(B: 12.5 nM, A: 22 nM)

* * *

- TARGET DESC: CDK2-NanoLuc fusion with CCNE1 in 293T or 293 cells (Homo sapiens)
- Construct: host or cells: 293T (ATCC CRL-3216) or 293 (ATCC CRL-1573)
- ASSAY NAME: NanoBRET Target Engagement (TE) Intracellular Kinase Assay, CDK2/CCNE1
- Format: cell-based
- CONDITION DETAILS: NanoBRET TE intracellular kinase assay, 2-hour incubation, read-out: NanoBRET-CDK2/E1 IC50
Known IC50 of a selection of compounds
Numeric only. Scale: nM

Solved entries:
COc1cc(O)c(C=O)c(OCC(=O)Nc2cc([C@H]3CC[C@@H](OC(=O)N4C5COCC4C5)C3)[nH]n2)c1 [Compound 231] = 3.2
COc1cc(O)c(C=O)c(OCC(=O)Nc2cc([C@H]3CC[C@@H](OC(=O)NC4(C)CC4(F)F)C3)[nH]n2)c1 (single isomer, unassigned) [Compound 281] = 4.85

Okay, next one:
The reported IC50 of the compound CC(C)NC(=O)O[C@@H]1CC[C@H](c2cc(NC(=O)Cc3ccc(O)c(C=O)c3)n[nH]2)C1 [Compound 5] was 6.58
